Ratio IC50 values, listed per item
TEST PROTOCOL: Selectivity index, ratio of IC50 for human recombinant […] to IC50 for kidney aldose reductase 2
Just the number.

Recorded Ratio IC50, per entry:
{"COMPOUND": "O=c1ccc2ccc(O)cc2o1", "Ratio IC50": 0.27}
{"COMPOUND": "Cc1cc(=O)oc2cc(O)ccc12", "Ratio IC50": 0.27}
{"COMPOUND": "COc1cc2ccc(=O)oc2cc1O", "Ratio IC50": 1.62}
{"COMPOUND": "O=c1cc(-c2ccccc2)c2ccc(O)cc2o1", "Ratio IC50": 0.07}
{"COMPOUND": "O=c1cc(-c2ccccc2)c2cc(O)c(O)cc2o1", "Ratio IC50": 6.9}
{"COMPOUND": "Cc1cc(=O)oc2cc(O)c(O)cc12", "Ratio IC50": 1.68}
{"COMPOUND": "O=C(O)Cc1cc(=O)oc2cc(O)c(O)cc12", "Ratio IC50": 1.19}
{"COMPOUND": "COc1cc2oc(=O)ccc2cc1O", "Ratio IC50": 0.56}
{"COMPOUND": "O=C(O)Cc1cc(=O)oc2cc(O)ccc12", "Ratio IC50": 0.15}
{"COMPOUND": "O=c1ccc2cc(O)ccc2o1 [6-HYDROXYCOUMARIN]", "Ratio IC50": 1.1}

Value lookup for Ratio IC50; key = O=c1oc2ccccc2cc1O [3-HYDROXYCOUMARIN]
0.35

Entry O=c1ccc2cc(O)c(O)cc2o1 : reported Ratio IC50 = ?
1.84

###

TEST PROTOCOL: Inhibition kidney aldose reductase 2 by spectrophotometric analysis
ASSAY ENDPOINT: log10 IC50 (log10 of the value in µM)
Remember, log10 of IC50, in µM.

{"COMPOUND": "COc1cc2ccc(=O)oc2cc1O", "log10 IC50": 1.66}
{"COMPOUND": "O=c1cc(O)c2ccccc2o1 [4-HYDROXYCOUMARINS]", "log10 IC50": 1.61}
{"COMPOUND": "O=C(O)Cc1cc(=O)oc2cc(O)ccc12", "log10 IC50": 2.15}
{"COMPOUND": "Cc1cc(=O)oc2cc(O)ccc12", "log10 IC50": 1.95}
{"COMPOUND": "O=c1ccc2cc(O)ccc2o1 [6-HYDROXYCOUMARIN]", "log10 IC50": 2.19}
{"COMPOUND": "O=C(O)Cc1cc(=O)oc2cc(O)c(O)cc12", "log10 IC50": 1.73}
{"COMPOUND": "O=c1cc(-c2ccccc2)c2ccc(O)cc2o1", "log10 IC50": 1.56}
{"COMPOUND": "Cc1cc(=O)oc2cc(O)c(O)cc12", "log10 IC50": 1.58}

Query (compound): O=c1cc(-c2ccccc2)c2cc(O)c(O)cc2o1 ; field requested: log10 IC50
0.98

Name the reported log10 IC50 value associated with the compound O=c1ccc2ccc(O)cc2o1
1.93

Query (compound): O=c1ccc2cc(O)c(O)cc2o1 ; field requested: log10 IC50
1.56

###

TEST PROTOCOL: Selectivity index, ratio of IC50 for sorbitol dehydrogenase to IC50 for kidney aldose reductase 2
ASSAY ENDPOINT: Ratio IC50

{"MOLECULE": "O=c1ccc2cc(O)ccc2o1 [6-HYDROXYCOUMARIN]", "RECORDED MEASUREMENT": "> 2.56"}

What value of measured Ratio IC50 is listed for COc1cc2oc(=O)ccc2cc1O [ISOSCOPOLETIN] ?
> 2.48

Entry under review: O=c1cc(O)c2ccccc2o1 [4-HYDROXYCOUMARINS] . Reported Ratio IC50?
> 9.88

###

Some compounds, each annotated with its measured log10 IC50.
TESTED ON: Aldo-keto reductase family 1 member B1 (Homo sapiens, UniProt P15121)
TEST PROTOCOL: Inhibition human recombinant […] by spectrophotometric analysis
Friendly reminder: values = log10 of IC50, unit µM.

These recorded examples may help you get a feel for the data.
{"COMPOUND": "COc1cc2ccc(=O)oc2cc1O [SCOPOLETIN]", "log10 IC50": 1.87}
{"COMPOUND": "COc1cc2oc(=O)ccc2cc1O [ISOSCOPOLETIN]", "log10 IC50": 1.75}
{"COMPOUND": "O=c1ccc2cc(O)ccc2o1 [6-HYDROXYCOUMARIN]", "log10 IC50": 2.23}
{"COMPOUND": "O=c1oc2ccccc2cc1O [3-HYDROXYCOUMARIN]", "log10 IC50": 1.79}

Quick check: log10 IC50 of O=c1ccc2ccc(O)cc2o1 [UMBELLIFERONE] ?
1.36

// query log10 IC50 value for entry O=c1cc(-c2ccccc2)c2ccc(O)cc2o1
0.38

Where these numbers come from: ChEMBL document CHEMBL1255562
